Some molecules, each annotated with its measured Relative potency.
# Species on record: Homo sapiens
# assayText: Relative potency to inhibit ADP-induced aggregation of human platelet rich plasma compared to that of dazoxiben, in vitro using pig aortal microsomes.
# Type: functional
# runParameters: Aorta

givenSmiles: Cc1c(Cn2ccnc2)c2ccccc2n1CCC(=O)O
Relative potency: 1
//
givenSmiles: CCOC(=O)/C(C)=C/c1cc(Cn2ccnc2)n(C)c1
Relative potency: 1.1
//
givenSmiles: CCOC(=O)/C(C)=C\c1ccc(Cc2cccnc2)n1CC(C)(C)C
Relative potency: 0.03
//
givenSmiles: C/C(=C\c1ccc(Cn2ccnc2)[nH]1)C(=O)OCc1ccccc1
Relative potency: 0.11
//
givenSmiles: CCOC(=O)/C(C)=C\c1ccc(Cc2cccnc2)n1CC
Relative potency: 0.14
//
givenSmiles: CCOC(=O)/C(C)=C\c1ccc(Cn2ccnc2)[nH]1
Relative potency: 0.31
//
givenSmiles: CCOC(=O)/C(C)=C\c1cc(Cc2cccnc2)n(C(C)(C)C)c1
Relative potency: 0.59
//
givenSmiles: CCOC(=O)/C=C\c1ccc(Cn2ccnc2)n1C
Relative potency: 0.25
//
givenSmiles: CCOC(=O)/C(C)=C\c1ccc(Cc2cccnc2)n1C(C)C
Relative potency: 0.06
//
givenSmiles: CCOC(=O)/C(C)=C\c1ccc(Cc2cccnc2)n1-c1ccccc1
Relative potency: 0.01
//
givenSmiles: CCOC(=O)/C=C/c1cc(Cn2ccnc2)n(C)c1
Relative potency: 1.2
